# tested.system: human mGluR7 (Homo sapiens (Human), UniProt Q14831)
# Sequence (Q14831 35-915): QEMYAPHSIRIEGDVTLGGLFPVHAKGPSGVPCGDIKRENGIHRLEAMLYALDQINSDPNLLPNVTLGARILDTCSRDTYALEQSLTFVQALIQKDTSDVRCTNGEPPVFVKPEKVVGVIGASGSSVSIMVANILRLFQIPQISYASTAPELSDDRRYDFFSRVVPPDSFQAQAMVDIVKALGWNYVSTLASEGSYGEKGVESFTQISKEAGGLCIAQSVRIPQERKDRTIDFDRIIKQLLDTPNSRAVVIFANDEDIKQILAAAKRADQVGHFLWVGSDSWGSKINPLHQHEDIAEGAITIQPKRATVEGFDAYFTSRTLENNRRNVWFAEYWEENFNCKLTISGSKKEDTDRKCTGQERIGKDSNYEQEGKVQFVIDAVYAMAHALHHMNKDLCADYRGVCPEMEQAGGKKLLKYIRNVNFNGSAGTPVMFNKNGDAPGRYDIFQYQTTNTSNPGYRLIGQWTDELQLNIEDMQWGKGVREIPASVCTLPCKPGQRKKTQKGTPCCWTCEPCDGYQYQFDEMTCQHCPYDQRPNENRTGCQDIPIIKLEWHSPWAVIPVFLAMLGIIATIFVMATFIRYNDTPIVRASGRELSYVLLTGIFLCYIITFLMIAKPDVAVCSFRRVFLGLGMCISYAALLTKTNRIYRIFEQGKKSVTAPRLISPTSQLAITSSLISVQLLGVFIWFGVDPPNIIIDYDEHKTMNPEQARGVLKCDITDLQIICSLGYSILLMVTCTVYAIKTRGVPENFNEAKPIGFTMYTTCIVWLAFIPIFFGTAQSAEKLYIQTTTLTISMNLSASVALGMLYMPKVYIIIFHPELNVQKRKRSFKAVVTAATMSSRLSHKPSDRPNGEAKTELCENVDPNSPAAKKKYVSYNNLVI
# test.name: Inositol monophosphate production assay (IP1 assay), inhibition of L-AP4 response
# Assay type: cell-based
# reported.conditions: mean IC50 from at least two independent experiments; HEK293 cells transiently transfected with mGluR7, Gqtop and EAAC1; IP1 production vs EC80 L-AP4
Reported IC50 values follow for various molecules

Record excerpt, results attached:
>>> reading("Cc1ccc(C2Cc3cnn(-c4ccccn4)c(=O)c3C2)c(C)c1 (stereo not drawn)")
"1000 to 30000 nM"
>>> reading("COc1cccc(C2CCc3c(cnn(-c4ncccn4)c3=O)C2)c1Cl (stereo not drawn)")
"< 500 nM"
>>> reading("Cc1ccc(C2CCc3c(cnn(-c4ncccc4C)c3=O)C2)c(C)c1 (stereo not drawn)")
"< 500 nM"
>>> reading("Cc1ccc(C2CCc3c(cnn(-c4ncccc4Cl)c3=O)C2)c(C)c1 (stereo not drawn)")
"< 500 nM"
>>> reading("CCOc1cccc(C2CCc3c(cnn(-c4ncccn4)c3=O)C2)c1C (stereo not drawn)")
"< 500 nM"
>>> reading("COCc1ccc(-n2ncc3c(c2=O)CCC(c2ccc(C)cc2C)C3)nc1 (stereo not drawn)")
"< 500 nM"
>>> reading("Cc1c(OC(C)C)cccc1C1CCc2c(cnn(-c3ncccn3)c2=O)C1 (stereo not drawn)")
"1000 to 30000 nM"
>>> reading("COc1cccc(C2CCc3c(cnn(-c4ccccn4)c3=O)C2)c1 (stereo not drawn)")
"500 to 1000 nM"

Considering Cc1ccc(C2CCc3c(cnn(-c4ccc(N5CCOCC5)cn4)c3=O)C2)c(C)c1 (stereo not drawn) , its IC50 with human mGluR7 (Homo sapiens (Human), UniProt Q14831) was recorded as < 500 nM
